The compounds listed here are annotated with their EC50.
- System: PC-3 cells
- Experiment description: Cell Proliferation Assay (Cell Titer Glo), PC-3 cell line
- Type: cell-based
- Condition parameters: Homo sapiens, PC-3, PC3 cells; read-out: CPEC50 PC3

NS(=O)(=O)c1ccc(Nc2ncc3cccc(-c4cncc(C(=O)O)c4)c3n2)cc1    5 to 10 µM
NC(=O)C1CCN(Cc2cncc(-c3cccc4cnc(Nc5ccc(S(N)(=O)=O)cc5)nc34)c2)CC1    5 to 10 µM
CN1CCN(C(=O)c2cncc(-c3cccc4cnc(Nc5ccc(S(N)(=O)=O)cc5)nc34)c2)CC1    5 to 10 µM

For CN1CCN(c2ccc(-c3cccc4cnc(Nc5ccc(F)cc5)nc34)cn2)CC1 the compound record lists EC50 as < 5 µM

For Fc1ccc(Nc2ncc3cccc(-c4ccc(NCCN5CCCC5)nc4)c3n2)cc1 the compound record lists EC50 as < 5 µM

For CCN(CC)CCNc1ccc(-c2cccc3cnc(Nc4ccc(S(N)(=O)=O)cc4)nc23)cn1 the compound record lists EC50 as < 5 µM

---

The molecules listed here are annotated with their IC50.
- Assayed system: PDK1 kinase (Homo sapiens, UniProt O15530)
- Sequence (O15530 1-556): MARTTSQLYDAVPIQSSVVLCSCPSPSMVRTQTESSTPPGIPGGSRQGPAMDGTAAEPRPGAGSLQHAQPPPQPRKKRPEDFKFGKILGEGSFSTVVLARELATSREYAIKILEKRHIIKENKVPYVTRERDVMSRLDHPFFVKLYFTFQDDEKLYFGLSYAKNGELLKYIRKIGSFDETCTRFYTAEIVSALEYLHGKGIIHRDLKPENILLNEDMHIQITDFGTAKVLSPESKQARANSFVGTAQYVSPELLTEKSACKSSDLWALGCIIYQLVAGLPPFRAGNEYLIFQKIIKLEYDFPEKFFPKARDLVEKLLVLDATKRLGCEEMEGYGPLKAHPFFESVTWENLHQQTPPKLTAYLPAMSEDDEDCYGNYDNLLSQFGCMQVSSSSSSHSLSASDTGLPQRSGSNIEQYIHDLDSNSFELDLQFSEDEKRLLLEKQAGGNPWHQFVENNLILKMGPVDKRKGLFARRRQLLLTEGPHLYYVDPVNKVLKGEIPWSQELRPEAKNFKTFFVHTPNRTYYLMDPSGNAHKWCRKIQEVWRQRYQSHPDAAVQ
- Experiment description: PDK1 Kinase Alpha Screen Assay
- Assay type: biochemical
- Condition parameters: read-out: PDK1 IC50

Use these answered entries as a reference point.
NS(=O)(=O)c1ccc(Nc2ncc3cccc(CNCCc4cnc[nH]4)c3n2)cc1    < 5 µM
CC(C)NCc1cncc(-c2cccc3cnc(Nc4ccc(S(N)(=O)=O)cc4)nc23)c1    < 5 µM
NS(=O)(=O)c1ccc(Nc2ncc3cccc(C(=O)N4CCS(=O)(=O)CC4)c3n2)cc1    10 to 25 µM
CCCCNS(=O)(=O)c1cccc(Nc2ncc3cccc(-c4cccc(NC(C)=O)c4)c3n2)c1    5 to 10 µM
NS(=O)(=O)c1ccc(Nc2ncc3cccc(CNCCN4CCCC4)c3n2)cc1    < 5 µM
CN(C)[C@@H]1CCN(c2ccc(-c3cccc4cnc(Nc5ccc(S(N)(=O)=O)cc5)nc34)cn2)C1    < 5 µM
Nc1cc(C(F)(F)F)c(-c2cccc3cnc(Nc4ccc(S(N)(=O)=O)cc4)nc23)cn1    < 5 µM

Note: attention shifts to another entry.
For NS(=O)(=O)c1ccc(Nc2ncc3cccc(-c4cncc(CN5CCNC(=O)C5)c4)c3n2)cc1 the molecule record lists IC50 as < 5 µM

---

- Assayed system: PDK1 kinase (Homo sapiens, UniProt O15530)
- Experiment description: PDK1 Kinase Alpha Screen Assay
- Assay type: biochemical
- Condition parameters: PDK1 Kinase Alpha Screen Assay; read-out: PDK1 IC50
The molecules listed here are annotated with their IC50.

NS(=O)(=O)c1ccc(Nc2ncc3cccc(OC4CCCC4)c3n2)cc1 [Compound 512]    < 5 µM
COc1c(NC2CCN(C)CC2)cc(Cl)c2cnc(Nc3ccc(C(=O)N4CCOCC4)cc3)nc12 [Compound 503]    < 5 µM
CC(C)N1CCC(Oc2cccc3cnc(Nc4ccc(C#N)cc4)nc23)CC1 [Compound 536]    < 5 µM
NS(=O)(=O)c1ccc(Nc2ncc3ccc(-c4ccc(NCCN5CCCC5)nc4)cc3n2)cc1 [Compound 878]    < 5 µM
C#Cc1cc(OC2CCNCC2)c2nc(Nc3ccc(C(=O)N4CCOCC4)cc3)ncc2c1Cl [Compound 708]    < 5 µM

For O=S(=O)(c1ccc(Nc2ncc3ccc(OC4CCNCC4)cc3n2)cc1)N1CCOCC1 [Compound 332] the molecule record lists IC50 as < 5 µM

For NS(=O)(=O)c1ccc(Nc2ncc3ccc(-c4ccc(N5CCOCC5)nc4)cc3n2)cc1 [Compound 881] the molecule record lists IC50 as < 5 µM

For N#Cc1ccc(Nc2ncc3cccc(-c4ccc(NCCN5CCCC5)nc4)c3n2)cc1 [Compound 427] the molecule record lists IC50 as < 5 µM

For O=C(c1ccc(Nc2ncc3cccc(OC4CCNCC4)c3n2)cc1F)N1CCOCC1 [Compound 447] the molecule record lists IC50 as < 5 µM

For CC(=O)Nc1cc(Nc2ncc3ccc(OC4CCNCC4)cc3n2)cc(-c2cn[nH]c2)c1 [Compound 659] the molecule record lists IC50 as < 5 µM

For CC(C)N1CCC(Oc2cccc3cnc(Nc4ccc(C(=O)N5CCOCC5)cc4)nc23)CC1 [Compound 537] the molecule record lists IC50 as < 5 µM

---

The compounds listed here are annotated with their pEC50.
- System: A2780 cells
- Experiment description: Cell Proliferation Assay (Cell Titer Glo), A2780
- Assay type: cell-based
- Condition parameters: Homo sapiens; Cell Proliferation Assay, A2780; read-out: CPEC50 A2780
pEC50: −log10 of the molar value.

Use these answered entries as a reference point.
CC(C)(C(N)=O)C(=O)NCCOc1cccc2cnc(Nc3ccccc3)nc12    5.00 to 5.30
NCCOc1cccc2cnc(Nc3ccccc3)nc12    5.00 to 5.30
CC(C)Oc1cccc2cnc(Nc3ccc(S(=O)(=O)N4CCN(C)CC4)cc3)nc12    5.00 to 5.30
c1cc(N2CCOCC2)ccc1Nc1ncc2cc(-c3cnoc3)c(OC3CCNCC3)cc2n1    > 5.30
CN1CCC(Oc2cc3nc(Nc4ccc(N5CCOCC5)cc4)ncc3cc2-c2nccs2)CC1    > 5.30
CC(C)Oc1cccc2cnc(NC3CCN(C)CC3)nc12    5.00 to 5.30

For CC(C)N1CCC(COc2cccc3cnc(Nc4ccc(S(N)(=O)=O)cc4)nc23)CC1 the compound record lists pEC50 as > 5.30

For COCCN(C)Cc1cccc2cnc(Nc3ccc(S(N)(=O)=O)cc3)nc12 the compound record lists pEC50 as > 5.30

For CC(C)Oc1cccc2cnc(Nc3ccc(S(N)(=O)=O)cc3)nc12 the compound record lists pEC50 as > 5.30

For NS(=O)(=O)c1ccc(Nc2ncc3cc(F)cc(-c4ccc(F)nc4)c3n2)cc1 the compound record lists pEC50 as 5.00 to 5.30

For CC(C)NC(=O)c1cccc2cnc(Nc3ccc(S(N)(=O)=O)cc3)nc12 the compound record lists pEC50 as > 5.30

For CNC(=O)c1cccc2cnc(Nc3ccc(S(N)(=O)=O)cc3)nc12 the compound record lists pEC50 as > 5.30

For CNS(=O)(=O)c1ccc(Nc2ncc3cccc(OC(C)C)c3n2)cc1 the compound record lists pEC50 as > 5.30

For NS(=O)(=O)c1ccc(Nc2ncc3ccc(Br)c(O)c3n2)cc1 the compound record lists pEC50 as > 5.30

For CC(=O)Nc1ccc(COc2cccc3cnc(Nc4ccc(S(N)(=O)=O)cc4)nc23)cc1 the compound record lists pEC50 as > 5.30

For C#Cc1cc2cnc(Nc3ccc(N4CCOCC4)cc3)nc2cc1OC1CCNCC1 the compound record lists pEC50 as > 5.30

For O=C(c1ccc(Nc2ncc3cc(-c4nccs4)c(OC4CCNCC4)cc3n2)cc1)N1CCOCC1 the compound record lists pEC50 as > 5.30

For CC(C)Oc1cccc2cnc(Nc3ccc(S(C)(=O)=O)cc3)nc12 the compound record lists pEC50 as > 5.30

For CC(C)Oc1cccc2cnc(Nc3cccnc3)nc12 the compound record lists pEC50 as 5.00 to 5.30

For CC(C)Oc1cccc2cnc(Nc3ccc(C(N)=O)cn3)nc12 the compound record lists pEC50 as 5.00 to 5.30

---

The molecules listed here are annotated with their pEC50.
- Tested on: PC-3 cells
- Experiment description: Cell Proliferation Assay (Cell Titer Glo), PC-3 cell line
- Type: cell-based
- Condition parameters: Homo sapiens, PC-3, PC3 cells; read-out: CPEC50 PC3
pEC50: −log10 of the molar value.

Use these answered entries as a reference point.
COc1c(-c2cnn(C)c2)cc(Cl)c2cnc(Nc3ccc(C(=O)NC4CC4)cc3)nc12    > 5.30
C#Cc1cc(OC2CCNCC2)c2nc(Nc3ccc(C(=O)N4CCOCC4)cc3)ncc2c1Cl    > 5.30
NS(=O)(=O)c1ccc(Nc2ncc3cccc(-c4cncc(C(=O)NCCN5CCCC5)c4)c3n2)cc1    5.00 to 5.30
CS(=O)(=O)c1ccc(Nc2ncc3cccc(-c4ccc(NCCN5CCCC5)nc4)c3n2)cc1    5.00 to 5.30
CN(Cc1cncc(-c2cccc3cnc(Nc4ccc(S(N)(=O)=O)cc4)nc23)c1)C1CCOCC1    > 5.30

Entry NS(=O)(=O)c1ccc(Nc2ncc3cccc(-c4ccc(NCCCN5CCCC5)nc4)c3n2)cc1 , PC-3 cells data, pEC50 value: > 5.30

Entry NS(=O)(=O)c1ccc(Nc2ncc3cc(Cl)cc(-c4ccc(NCCN5CCCC5)nc4)c3n2)cc1 , PC-3 cells data, pEC50 value: > 5.30

Entry CN1CCN(Cc2cncc(-c3cccc4cnc(Nc5ccc(S(N)(=O)=O)cc5)nc34)c2)CC1 , PC-3 cells data, pEC50 value: > 5.30

Entry Cn1cc(-c2ccc3cnc(Nc4ccc(S(N)(=O)=O)cc4)nc3c2-c2ccc(NCCN3CCCC3)nc2)cn1 , PC-3 cells data, pEC50 value: > 5.30

Entry NS(=O)(=O)c1ccc(Nc2ncc3cccc(-c4cncc(CN5CCNC(=O)C5)c4)c3n2)cc1 , PC-3 cells data, pEC50 value: 5.00 to 5.30
